// cross-source set; read-out = Ki; system = Type-1 angiotensin II receptor (Homo sapiens)
Target: Type-1 angiotensin II receptor (Homo sapiens)
Sequence (P30556 whole entry): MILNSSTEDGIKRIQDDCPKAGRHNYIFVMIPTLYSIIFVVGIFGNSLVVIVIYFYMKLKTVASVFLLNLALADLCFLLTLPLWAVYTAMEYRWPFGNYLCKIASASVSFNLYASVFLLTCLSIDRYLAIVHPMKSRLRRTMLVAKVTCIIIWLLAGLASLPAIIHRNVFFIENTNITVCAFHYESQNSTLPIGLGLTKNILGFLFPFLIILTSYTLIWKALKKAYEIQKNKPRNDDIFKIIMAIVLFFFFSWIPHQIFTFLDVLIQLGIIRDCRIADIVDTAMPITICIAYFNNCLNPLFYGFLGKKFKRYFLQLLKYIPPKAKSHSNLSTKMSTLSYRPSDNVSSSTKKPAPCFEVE
reported property: Ki (nM)

Below: 2 compounds and their reported Ki.
CCCCOC(=O)NS(=O)(=O)c1ccc(CCC)cc1-c1ccc(Cn2c(C3CCCC3)nc3ccccc32)cc1	410
CCCCC1=N/C(=C\c2ccc(Br)cc2)C(=O)N1Cc1ccc(-c2ccccc2C#N)cc1	24800

1. CCCCOC(=O)NS(=O)(=O)c1sc(CC(C)C)cc1-c1ccc(Cn2c(CC)nc3c(C)cc(C)nc32)cc1
2. CCCCCN(C(=O)NC)c1ccc2nc(CCCC)n(Cc3ccc(NC(=O)c4c(Cl)ccc(Cl)c4C(=O)O)cc3)c2c1
Prompt: Given the listed records, identify the one among 1 and 2 with higher Ki. Mark your selection by writing its label.
Completion: 2
(2: 20 nM, 1: 3.9 nM)

1. CCCCOC(=O)NS(=O)(=O)c1ccc(CCC)cc1-c1ccc(Cn2c(CCCC)nc3ccccc32)cc1
2. CC(O)CCC(=O)N(c1ccc(-c2ccccc2-c2nnn[nH]2)cc1)[C@H](C(=O)O)C(C)C (stereo partly drawn)
3. CCCCN1C(=O)CC2(CCCC2)C(=O)N1Cc1ccc(-c2ccccc2-c2nn[nH]n2)cc1
Prompt: Please give the order of these compounds when sorted by Ki, largest value leading. Rank the items, then write their labels in that order.
Completion: 2, 1, 3
(2: 370 nM, 1: 180 nM, 3: 14 nM)
